Data credit: the supplement of paper PMC12667976

B1: library; numbered along this chain (parent)
chain: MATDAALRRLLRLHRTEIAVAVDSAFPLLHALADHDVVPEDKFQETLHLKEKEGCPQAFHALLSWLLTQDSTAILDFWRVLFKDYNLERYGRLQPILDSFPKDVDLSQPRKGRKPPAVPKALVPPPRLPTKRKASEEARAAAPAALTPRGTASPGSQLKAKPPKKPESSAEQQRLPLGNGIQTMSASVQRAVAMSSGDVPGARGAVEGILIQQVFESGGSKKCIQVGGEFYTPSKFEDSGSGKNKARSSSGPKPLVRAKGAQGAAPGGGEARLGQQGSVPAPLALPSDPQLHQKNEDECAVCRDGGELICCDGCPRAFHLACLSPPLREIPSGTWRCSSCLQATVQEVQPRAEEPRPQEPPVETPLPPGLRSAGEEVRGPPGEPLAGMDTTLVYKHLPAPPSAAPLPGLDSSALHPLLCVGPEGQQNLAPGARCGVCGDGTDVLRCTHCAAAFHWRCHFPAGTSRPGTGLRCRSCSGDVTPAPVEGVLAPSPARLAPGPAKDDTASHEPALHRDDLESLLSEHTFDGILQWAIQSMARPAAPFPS

- Variants of: B1
- PROTOCOL_DESCRIPTION: AIRE transcriptional activation functional score (insulin promoter-GFP; nonsense median 0, synonymous median 1) (normalised score); higher = higher AIRE activity (more reporter activation)
- RUN_PARAMETERS: with insulin promoter-GFP reporter in HEK293
Tag: class 1 if measured AIRE transcriptional activation functional score is not below 0.8, class 0 if it is.

   mutant_label  class_assignment
0         D304N           class 0
1         R328E           class 1
2         Q349Y           class 1
3         C310P           class 0
4         C311S           class 1
5         R351I           class 0
6         K133T           class 0
